# PROTOCOL DETAILS: Log P by HPLC on reversed phase columns (EEC directive 79/831 Annex V.A8)
# Assay type: physicochemical
# TEST SETTINGS: method marked [a]
REPORTED METRIC: LogP

See these solved cases before continuing.
                                   compound  reported_metric  reported_result
0  COC(=O)C1(NC(=O)c2sc(C#N)c(Cl)c2C)CC1 [1.0283]             LogP         2.21^[a]
1  CCOC(=O)CNC(=O)c1cc(C#N)c(Br)s1 [1.0400]             LogP         2.11^[a]
2  CCOC(=O)C(CCSC)NC(=O)c1sc(Br)c(Br)c1C(F)(F)F (centres unmarked) [1.0376]             LogP         3.87^[a]
3  CCOC(=O)CNC(=O)c1sc(Cl)c(Cl)c1F [1.0344]             LogP         2.83^[a]
4  COC(=O)C1(NC(=S)c2cc(Br)c(C#N)s2)CC1 [1.0336]             LogP         3.03^[a]
5  COC(=O)C1(NC(=O)c2sc(F)c(Br)c2Br)CCC1 [1.0712]             LogP         3.41^[a]
6  CCOC(=O)C(CC(C)C)NC(=O)c1sc(Br)c(Br)c1C(F)(F)F (centres unmarked) [1.0375]             LogP         4.38^[a]
7   N#CCNC(=O)c1sc(Br)c(Br)c1C(F)F [1.0353]             LogP         2.54^[a]
8  COC(=O)C(CC(F)F)NC(=O)c1sc(Br)c(Br)c1C(F)F (centres unmarked) [1.0361]             LogP         3.28^[a]
9  O=C(O)C1(NC(=S)c2sc(Br)c(Br)c2F)CC1 [1.0329]             LogP         2.95^[a]

IN: Any idea what LogP was measured for COC(=O)CNC(=O)c1cc(Br)c(C(F)(F)F)s1 [1.0716] ?
OUT: 2.65^[a]

IN: Any idea what LogP was measured for CCOC(=O)C(Cc1ccccc1)NC(=O)c1cc(Cl)c(C#N)s1 (centres unmarked) [1.0391] ?
OUT: 3.48^[a]

IN: Any idea what LogP was measured for CCOC(=O)CNC(=O)c1cc(Br)c(C(F)(F)F)s1 [1.0715] ?
OUT: 3.00^[a]
